Data credit: patent US20100081679A1

test: logP determination via retention times, calibrated with unbranched alkan-2-ones; type: physicochemical; details: method *: HPLC reversed-phase C18, 40° C., 0.1% aqueous formic acid and acetonitrile, linear gradient 10% to 95% acetonitrile
Please respond with reported logP for every item in the list.

compound	logP
O=S(=O)(c1cccc(Nc2ncc(Br)c(NCC3CC3)n2)c1)N1CCCCC1 [compound 454]	2.29*
CC(C)(C)OC(=O)N1CCN(c2ccc(Nc3ncc(Cl)c(NC4CC4)n3)cc2)CC1 [compound 7]	2.4*

Hello, I would appreciate it if you could give logP for each entry below.
1. COC(=S)Nc1ccc(Nc2ncc(Cl)c(NC3CC3)n2)cc1 [compound 365]
2. N#Cc1cnc(Nc2ccccc2)nc1NCC1CC1 [compound 87]
3. CS(=O)(=O)c1ccc(Nc2ncc(Br)c(NCC3CC3)n2)cc1 [compound 448]
4. Cc1ccc(Nc2ncc(Br)c(NC3CC3)n2)cc1O [compound 366]
5. COc1cc(Nc2ncc(Cl)c(NC3CC3)n2)cc(OC)c1 [Example 3]
6. FC(F)Sc1ccc(Nc2ncc(Cl)c(NC3CC3)n2)cc1 [compound 94]
7. C=CCS(=O)(=O)c1ccc(Nc2ncc(Cl)c(NC3CC3)n2)cc1 [Example 61]
8. COC(=O)c1ccc(Nc2ncc(Cl)c(NC3CC3)n2)cc1Cl [compound 378]

1.8*
2.77*
2.09*
1.46*
1.91*
2.77*
2.18*
2.91*

Hello, I would appreciate it if you could give logP for each entry below.
1. CC(C)COc1cccc(Nc2ncc(Br)c(NC3CC3)n2)c1 [compound 445]
2. O=C1OCCN1c1ccc(Nc2ncc(C(F)(F)F)c(NC3CC3)n2)cc1 [compound 367]
3. FC(F)(F)c1nc2ccc(Nc3ncc(Cl)c(NC4CC4)n3)cc2[nH]1 [Example 68]

1. 3.36*
2. 1.94*;
3. 1.55*

* * *

assay: logP determination via retention times, calibrated with unbranched alkan-2-ones; type: physicochemical; settings: HPLC on reversed-phase C 18, EEC Directive 79/831 Annex V.A8; method *: 40° C., 0.1% aqueous formic acid and acetonitrile, linear gradient 10% to 95% acetonitrile
Marks after values point to notes of the source that are not given here.
assay-endpoint: logP

For orientation, consider the following solved cases.
molecule	result
COc1cc(Nc2ncc(Br)c(NC3CC3)n2)ccc1Cl [compound 532]	2.70*
CCC(=O)Nc1cc(Nc2ncc(Br)c(NCC3CC3)n2)ccc1O [compound 494]	1.97*
CSc1cc(Nc2ncc(Cl)c(NCC3CC3)n2)ccc1C [compound 547]	2.45*
Clc1ccc(Nc2ncc(Br)c(NCC3CC3)n2)cc1 [compound 474]	2.67*
CN1CC(=O)N(c2ccc(Nc3ncc(Cl)c(NCC4CC4)n3)cc2)C1=O [compound 523]	1.53*
CC(C)(CCl)C(=O)Nc1ccc(Nc2ncc(Cl)c(NCC3CC3)n2)cc1 [compound 556]	2.02*
O=C1CCCN1c1cccc(Nc2ncc(Cl)c(NCC3CC3)n2)c1 [compound 520]	1.56*
Fc1ccc(Nc2ncc(Cl)c(NCC3CC3)n2)cc1 [compound 550]	1.97*

Hello, I would appreciate it if you could give logP for each entry below.
1. OCc1cccc(Nc2ncc(Cl)c(NCC3CC3)n2)c1 [compound 560]
2. Brc1ccc(Nc2ncc(Br)c(NCC3CC3)n2)cc1 [compound 472]
3. FC(F)(F)Oc1ccc(Nc2ncc(Br)c(NCC3CC3)n2)cc1 [compound 476]
4. Cc1cc(C)cc(Nc2ncc(Br)c(NCC3CC3)n2)c1 [compound 471]
5. CNC(=O)Oc1cccc(Nc2ncc(Cl)c(NCC3CC3)n2)c1 [compound 514]

["1.47*", "2.84*", "3.1*", "2.36*", "1.61*"]

Hello, I would appreciate it if you could give logP for each entry below.
1. CNC(=O)c1cccc(Nc2ncc(Cl)c(NCC3CC3)n2)c1 [compound 511]
2. CC1COC(=O)N1c1cccc(Nc2ncc(Br)c(NC3CC3)n2)c1 (stereo not shown) [compound 533]
3. O=C(Nc1cccc(Nc2ncc(Br)c(NCC3CC3)n2)c1)Oc1ccccc1 [compound 466]
4. CC(C)(C)OC(=O)Nc1cccc(Nc2ncc(Cl)c(NCC3CC3)n2)c1 [compound 524]
5. N#Cc1ccc(Nc2ncc(Br)c(NCC3CC3)n2)cc1 [compound 475]
6. CC(=O)N1CCc2ccc(Nc3ncc(Cl)c(NCC4CC4)n3)cc21 [compound 521]
7. CSc1cccc(Nc2ncc(C)c(NC3CC3)n2)c1 [compound 497]
8. CN(C)C(=O)Nc1ccc(Nc2ncc(Cl)c(NCC3CC3)n2)cc1 [compound 548]

1.44*
1.68*
2.36*
2.33*
2.7*
1.66*
1.48*
1.49*

Hello, I would appreciate it if you could give logP for each entry below.
1. CCOC(=O)Nc1ccc(Nc2ncc(Cl)c(NCC3CC3)n2)cc1O [compound 542]
2. C#Cc1cccc(Nc2ncc(Cl)c(NC3CC3)n2)c1 [compound 502]
3. CN(C)C(=O)c1cccc(Nc2ncc(Cl)c(NCC3CC3)n2)c1 [compound 519]
4. CC(=O)Nc1cc(Nc2ncc(Br)c(NCC3CC3)n2)ccc1C [compound 468]
5. CCC(=O)Nc1cccc(Nc2ncc(Cl)c(NCC3CC3)n2)c1 [compound 508]

["1.68*", "2.24*", "1.58*", "1.51*", "1.61*"]

Hello, I would appreciate it if you could give logP for each entry below.
1. CCN(C(C)=O)c1ccc(Nc2ncc(Br)c(NCC3CC3)n2)cc1 [compound 480]
2. FC(F)Oc1ccc(Nc2ncc(Cl)c(NCC3CC3)n2)cc1 [compound 538]
3. CC(C)(C)NC(=O)Cc1cccc(Nc2ncc(Cl)c(NCC3CC3)n2)c1 [compound 561]
4. O=CNc1ccc(Nc2ncc(Cl)c(NCC3CC3)n2)cc1 [compound 544]

1.83*
2.25*
1.93*
1.17*

Briefly, logP measured for CCCOc1cccc(Nc2ncc(Cl)c(NC3CC3)n2)c1 [compound 531] : 2.64*

* * *

assay: logP determination via retention times, calibrated with unbranched alkan-2-ones; type: physicochemical; conditions: HPLC on reversed-phase C18 column (EEC Directive 79/831 Annex V.A8); method *: 40° C.; 0.1% aqueous formic acid and acetonitrile; linear gradient 10% to 95% acetonitrile
Marks after values point to notes of the source that are not given here.
Please respond with reported logP for every item in the list.

For orientation, consider the following solved cases.
molecule	result
O=S(=O)(c1cccc(Nc2ncc(C(F)(F)F)c(NCC3CC3)n2)c1)N1CCCCC1	3.81*
CN(C)C(=O)c1ccc(Nc2ncc(C(F)(F)F)c(NCC3CC3)n2)cc1	2.13*
Oc1ccc(Nc2ncc(Cl)c(NC3CC3)n2)cc1C1CCCC1	1.86*

Hello, I would appreciate it if you could give logP for each entry below.
1. COC(=O)c1cccc(Nc2ncc(Cl)c(NC3CC3)n2)c1
2. O=C1CCCN1c1cc(Nc2ncc(C(F)(F)F)c(NC3CC3)n2)ccc1F
3. O=C1NC(=O)C(c2ccc(Nc3ncc(Cl)c(NC4CC4)n3)cc2)N1 (stereo not drawn)
4. COC(c1cccc(Nc2ncc(Cl)c(NC3CC3)n2)c1)C(F)(F)F (stereo not drawn)

1.9*
2.33*
0.61*
2.69*

* * *

test: logP determination via retention times, calibrated with unbranched alkan-2-ones; type: physicochemical; conditions: HPLC on reversed-phase C18, method *: 40° C.; mobile phase 0.1% aqueous formic acid and acetonitrile; linear gradient 10% to 95% acetonitrile
Marks after values point to notes of the source that are not given here.
assay-endpoint: logP

For orientation, consider the following solved cases.
molecule	logP
COC(c1cccc(Nc2ncc(Br)c(NC3CC3)n2)c1)C(F)(F)F (stereo not drawn)	2.82*
O=C(Nc1ccc(Nc2ncc(Br)c(NC3CC3)n2)cc1)C(F)(F)F	1.97*
CC(=O)N(C)c1ccc(Nc2ncc(Br)c(NC3CC3)n2)cc1	1.54*
Oc1ccc(Nc2ncc(Cl)c(NC3CC3)n2)c(F)c1	1.26*
CCOC(=O)C1(Nc2nc(Nc3cccc(Cl)c3)ncc2Cl)CC1	3.13*

Briefly, logP measured for CC(C)(C)OC(=O)NCc1ccc(Nc2ncc(Br)c(NC3CC3)n2)cc1 : 2.02*

* * *

Please respond with reported logP for every item in the list.
test: logP determination via retention times, calibrated with unbranched alkan-2-ones; type: physicochemical; conditions: method *: HPLC reversed-phase C 18, temperature 40° C.; mobile phase 0.1% aqueous formic acid and acetonitrile; linear gradient 10% to 95% acetonitrile

For orientation, consider the following solved cases.
chem-smiles	logP
COC(=O)Nc1cccc(Nc2ncc(C#N)c(NC3CC3)n2)c1	2.06*
CCOC(=O)Nc1cccc(Nc2ncc(F)c(NC3CC3)n2)c1	1.53*
CCC(=O)Nc1cccc(Nc2ncc(C#N)c(NC3CC3)n2)c1	1.94*
CN1CCN(c2cccc(Nc3ncc(Br)c(NC4CC4)n3)c2)C1=O	1.58*
Fc1cc(F)cc(Nc2ncc(Cl)c(NCC3CC3)n2)c1	3.42*

Hello, I would appreciate it if you could give logP for each entry below.
1. CSc1ccc(Nc2ncc(C(F)(F)F)c(NC3CC3)n2)cc1Cl
2. N#Cc1cnc(Nc2ccc3c(c2)CC(=O)N3)nc1NC1CC1
3. O=C(NCC(F)(F)F)c1cccc(Nc2ncc(Br)c(NC3CC3)n2)c1
4. N#Cc1cccc(Nc2ncc(C(F)(F)F)c(NC3CC3)n2)c1

1: 4.08*; 2: 1.5*; 3: 1.91*; 4: 2.95*
